Each recorded value in this set is attributed to the supplement of paper PMC7877785.

assay: self-splicing fitness, log relative to wild type (ln ratio); higher = more splicing; Tetrahymena group I intron in knt gene, E. coli kanamycin selection, DiMSum; sequences stand for … in CUCUCU…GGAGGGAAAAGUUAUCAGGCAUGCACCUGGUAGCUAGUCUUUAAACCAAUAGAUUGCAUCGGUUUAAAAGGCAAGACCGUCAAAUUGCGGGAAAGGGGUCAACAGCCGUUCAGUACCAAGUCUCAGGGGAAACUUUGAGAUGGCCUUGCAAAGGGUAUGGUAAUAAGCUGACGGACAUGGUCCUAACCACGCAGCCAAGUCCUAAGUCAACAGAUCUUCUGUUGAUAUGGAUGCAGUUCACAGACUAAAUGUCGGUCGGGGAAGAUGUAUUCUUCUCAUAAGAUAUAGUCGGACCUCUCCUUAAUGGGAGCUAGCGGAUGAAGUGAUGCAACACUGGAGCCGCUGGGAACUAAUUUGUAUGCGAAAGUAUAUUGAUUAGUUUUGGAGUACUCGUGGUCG; details: 30 °C;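 further: selection with 25 µg/mL kanamycin versus none on LB agar overnight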
MEASUREMENT_NAME: self-splicing fitness (ln)
One number for each entry.

Completed entries (count: 5):
INPUT_SEQUENCE: GCCGAGCAAUAUUACGCAGU
self-splicing fitness (ln): -2.75

INPUT_SEQUENCE: CGGGAGCAAUAUUACGGUUA
self-splicing fitness (ln): -3.42

INPUT_SEQUENCE: CUGAAGCAAUAUUACGCGAC
self-splicing fitness (ln): -1.46

INPUT_SEQUENCE: CGCGAGCAAUAUUACGCUGG
self-splicing fitness (ln): -1.39

INPUT_SEQUENCE: ACGGAGCAAUAUUACGGAGC
self-splicing fitness (ln): -1.67

For each entry beneath this line, provide reported self-splicing fitness (ln).
1. UCAAAGCAAUAUUACGUGUG
2. ACAUAGCAAUAUUACGCUGC
3. GAAAAGCAAUAUUACGAUAG

Result:
1. -1.51
2. -2.01
3. -3.28

For each entry beneath this line, provide reported self-splicing fitness (ln).
1. CUUUAGCAAUAUUACGACAG
2. CCGCAGCAAUAUUACGGAAA
3. UCCUAGCAAUAUUACGUCGA
4. GACCAGCAAUAUUACGAGCA
5. GAAGAGCAAUAUUACGGCAC
6. UUUAAGCAAUAUUACGCCGG
7. GUUUAGCAAUAUUACGGUGU

Result:
[-0.431, -3.75, -0.0892, -1.07, -1.31, -0.192, -1.95]

Problem: Requested field: self-splicing fitness (ln). Item: UUUAAGCAAUAUUACGUAGU
Result: -2.62

----------
assay: self-splicing fitness, log relative to wild type (ln ratio); higher = more splicing; Tetrahymena group I intron in knt gene, E. coli kanamycin selection, DiMSum; sequences stand for … in CUCUCU…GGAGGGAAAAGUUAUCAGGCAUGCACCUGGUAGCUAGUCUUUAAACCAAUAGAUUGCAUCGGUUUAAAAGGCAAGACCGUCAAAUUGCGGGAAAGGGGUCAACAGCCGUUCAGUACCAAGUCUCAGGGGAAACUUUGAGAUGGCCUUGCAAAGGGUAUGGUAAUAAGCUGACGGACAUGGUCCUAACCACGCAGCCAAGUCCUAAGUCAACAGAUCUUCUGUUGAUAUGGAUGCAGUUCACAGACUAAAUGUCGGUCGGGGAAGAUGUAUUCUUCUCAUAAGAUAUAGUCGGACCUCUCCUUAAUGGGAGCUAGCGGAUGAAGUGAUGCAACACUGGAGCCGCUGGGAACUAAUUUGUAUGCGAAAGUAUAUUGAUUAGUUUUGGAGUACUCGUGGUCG; details: 37 °C
Would you mind labelling by self-splicing fitness (ln)? At or over -2 is True, under is False.

Look over these answered cases.
INPUT_SEQUENCE: CAGUAGCAAUAUUACGUAGA
GROUP: True
--
INPUT_SEQUENCE: UCUAAGCAAUAUUACGAUAG
GROUP: True
--
INPUT_SEQUENCE: ACUCAGCAAUAUUACGAGGA
GROUP: True
--
INPUT_SEQUENCE: UAAGAGCAAUAUUACGGACU
GROUP: False
--
INPUT_SEQUENCE: ACCGAGCAAUAUUACGGGCA
GROUP: True

Problem: Can CAUAAGCAAUAUUACGUCUA be said to have self-splicing fitness (ln) at or above -2?
Result: True

Problem: Can UCUCAGCAAUAUUACGUAAA be said to have self-splicing fitness (ln) at or above -2?
Result: True

Problem: Can CAUUAGCAAUAUUACGCAUC be said to have self-splicing fitness (ln) at or above -2?
Result: True

Problem: Can AUAGAGCAAUAUUACGGUAG be said to have self-splicing fitness (ln) at or above -2?
Result: True

Problem: Can GUGCAGCAAUAUUACGCAAA be said to have self-splicing fitness (ln) at or above -2?
Result: True

Problem: Can AAGAAGCAAUAUUACGUAUC be said to have self-splicing fitness (ln) at or above -2?
Result: True

Problem: Can GCUGAGCAAUAUUACGUUAA be said to have self-splicing fitness (ln) at or above -2?
Result: False

Problem: Can CAGAAGCAAUAUUACGGGCG be said to have self-splicing fitness (ln) at or above -2?
Result: True

Problem: Can GGCAAGCAAUAUUACGAAGU be said to have self-splicing fitness (ln) at or above -2?
Result: True

Problem: Can UACGAGCAAUAUUACGGACC be said to have self-splicing fitness (ln) at or above -2?
Result: False

Problem: Can ACGUAGCAAUAUUACGAAAA be said to have self-splicing fitness (ln) at or above -2?
Result: True

Problem: Can CGGGAGCAAUAUUACGGCCU be said to have self-splicing fitness (ln) at or above -2?
Result: False

Problem: Can CCCGAGCAAUAUUACGACGA be said to have self-splicing fitness (ln) at or above -2?
Result: True

Problem: Can AUUGAGCAAUAUUACGCCGG be said to have self-splicing fitness (ln) at or above -2?
Result: False

Problem: Can CGUGAGCAAUAUUACGGCGG be said to have self-splicing fitness (ln) at or above -2?
Result: True
